molecular target: LILRA2 (human (not printed on the sheet), UniProt Q8N149); test: LILR reporter cells on coated antibody, GFP positive (%)
Sequence (Q8N149 24-449 limits assumed): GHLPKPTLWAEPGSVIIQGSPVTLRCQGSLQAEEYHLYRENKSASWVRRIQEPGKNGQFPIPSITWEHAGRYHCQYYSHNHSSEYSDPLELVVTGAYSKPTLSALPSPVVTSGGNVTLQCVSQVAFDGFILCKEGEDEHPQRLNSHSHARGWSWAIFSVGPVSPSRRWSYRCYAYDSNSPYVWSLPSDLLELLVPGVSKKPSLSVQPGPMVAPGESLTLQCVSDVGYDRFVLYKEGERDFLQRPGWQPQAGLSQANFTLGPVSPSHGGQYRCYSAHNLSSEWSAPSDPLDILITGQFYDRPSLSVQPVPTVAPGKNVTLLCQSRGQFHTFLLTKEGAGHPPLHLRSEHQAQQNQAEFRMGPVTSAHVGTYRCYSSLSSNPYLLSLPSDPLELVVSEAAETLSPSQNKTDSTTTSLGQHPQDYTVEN
MEASURED_PARAMETER: binding result

BINDER: h193 antibody No. 24 (h193-H4 / h193-K2) (antibody, V domains shown) VH: EVQLVESGGGLVQPGGSLRLSCAASGFSLSSSYWISWVRQAPGKGLEWVSSIDSGSVGITYYATWAKGRFTISRDNSKNTLYLQMNSLRAEDTAVYYCARHGDNWALDLWGQGTLVTVSS VL: DLVMTQSPSTLSASVGDRVTITCQASQSINSWLAWYQQKPGKPPKLLIYKASTLASGVSSRFSGSGSGTEFTLTISSLQPDDVATYYCQHGYIRGDLDNVFGGGTKVEIK
EXPERIMENTAL_RESULT: no binding
--
BINDER: h193 antibody No. 33 (h193-H6 / h193-K3) (antibody, V domains shown) VH: EVQLVESGGGLVQPGGSLRLSCAASGFSLSSSYWISWVRQAPGKGLEWIGSIDSGSVGITYYATSAKGRFTISRDNSKNTLYLQMNSLRAEDTAVYYCARHGDNWALDLWGQGTLVTVSS VL: DIQMTQSPSTLSASVGDRVTITCRASQSINSWLAWYQQKPGKAPKLLIYKASTLASGVPSRFSGSGSGTEFTLTISSLQPDDFATYYCQHGYIRGDLDNVFGGGTKVEIK
EXPERIMENTAL_RESULT: no binding
--
BINDER: h193 antibody No. 19 (h193-H3 / h193-K1) (antibody, V domains shown) VH: EVQLVESGGGLVQPGGSLRLSCAASGFSLSSSYWISWVRQAPGKGLEWIGSIDSGSVGITYYATWAKGRFTISRDNSKNTLYLQMNSLRAEDTAVYYCARHGDNWALDLWGQGTLVTVSS VL: DIQMTQSPSTLSASVGDRVTITCQASQSINSWLAWYQQKPGKAPKLLIYKASTLASGVPSRFSGSGSGTEFTLTISSLQPDDFATYYCQHGYIRGDLDNVFGGGTKVEIK
EXPERIMENTAL_RESULT: no binding
